test system: axenic Leishmania donovani MHOM-ET-67/L82 amastigotes; assay: In vitro antiprotozoal assay, axenic amastigotes; assay type: cell-based; details: axenic amastigotes; read-out: L.don.ax. IC50
Square brackets hold non-standard residues; d marks the D form. Peptide text beside a SMILES is read from it. * marks the point of attachment. Benzoyl(4-CF3) = O=C(c1ccc(C(F)(F)F)cc1)*; NH((S)CH(Me)CH2NMe2) = C[C@@H](CN(C)C)N*; Gly(octyl) = CCCCCCCC[C@H](N)C(=O)O; Oxazole4CO(2-Me) = Cc1nc(C(=O)*)co1; hCha = N[C@@H](CCC1CCCCC1)C(=O)O; X3 = C[C@@H](CN1CCOCC1)N*; Aib = CC(C)(N)C(=O)O; βAla = NCCC(=O)O
Each item that follows carries a reported pIC50.
Keep it numeric: pIC50 is minus log10 of the concentration in mol/L.

Past entries and their recorded results:
[
  {
    "COMPOUND": "CCCCCCCC[C@H](NC(=O)[C@@H]1CCCN1C(=O)c1coc(C)n1)C(=O)N[C@@H](CC(C)C)C(=O)NC(C)(C)C(=O)N[C@@H](CC(C)C)C(=O)N[C@@H](CC(C)C)C(=O)NC(C)(C)C(=O)NC(C)(C)C(=O)NCCC(=O)N[C@@H](C)CN(C)C [Compound 5905] ({Oxazole4CO(2-Me)}-P[Gly(octyl)]L[Aib]LL[Aib][Aib][βAla]-{NH((S)CH(Me)CH2NMe2)})",
    "pIC50": 8.10
  },
  {
    "COMPOUND": "Cc1nc(C(=O)N2CCC[C@H]2C(=O)N[C@@H](CCC2CCCCC2)C(=O)N[C@@H](CC(C)C)C(=O)NC(C)(C)C(=O)N[C@@H](CC(C)C)C(=O)N[C@@H](CC(C)C)C(=O)NC(C)(C)C(=O)NC(C)(C)C(=O)NCCC(=O)N[C@@H](C)CN2CCOCC2)co1 [Compound 6026] ({Oxazole4CO(2-Me)}-P[hCha]L[Aib]LL[Aib][Aib][βAla]-X3)",
    "pIC50": 8.38
  }
]

Attention now turns to another entry.
Query block: Which measured pIC50 value corresponds to CCCCCCCC[C@H](NC(=O)[C@@H]1CCCN1C(=O)c1ccc(C(F)(F)F)cc1)C(=O)N[C@@H](CC(C)C)C(=O)NC(C)(C)C(=O)N[C@@H](CC(C)C)C(=O)N[C@@H](CC(C)C)C(=O)NC(C)(C)C(=O)NC(C)(C)C(=O)NCCC(=O)N[C@@H](C)CN(C)C [Compound 5936] ({Benzoyl(4-CF3)}-P[Gly(octyl)]L[Aib]LL[Aib][Aib][βAla]-{NH((S)CH(Me)CH2NMe2)}) ?
Result block: 8.48

---

The following compounds are shown together with reported IC50 at 68 h values.
assay: Cytotoxicity assay (Alamar Blue) on L6-cells; format: cell-based, rat; conditions: rat
Square brackets hold non-standard residues; d marks the D form. Peptide text beside a SMILES is read from it. * marks the point of attachment. NH((S)CH(Me)CH2NMe2) = C[C@@H](CN(C)C)N*; NH(1-CH2NMe2-cBu) = CN(C)CC1(N*)CCC1; Gly(octyl) = CCCCCCCC[C@H](N)C(=O)O; Oxazole4CO(2-Me) = Cc1nc(C(=O)*)co1; d(hCha) = N[C@H](CCC1CCCCC1)C(=O)O; X4 = COc1ccc2cc(C(=O)*)c(=O)oc2c1; hCha = N[C@@H](CCC1CCCCC1)C(=O)O; X7 = O=C(c1ccc2[nH]ccc2c1)*; X2 = C1CCN(CC2(N*)CCC2)CC1; X12 = CN(C)CC1(N*)CCCC1; NHCH2CH2NHMe = CNCCN*; Aib = CC(C)(N)C(=O)O; βAla = NCCC(=O)O
Respond with the bare value in nM.

These recorded examples may help you get a feel for the data.
[
  {
    "COMPOUND": "CCCCCCCC[C@H](NC(=O)[C@@H]1CCCN1C(=O)c1cc2ccc(OC)cc2oc1=O)C(=O)N[C@@H](CC(C)C)C(=O)NC(C)(C)C(=O)N[C@@H](CC(C)C)C(=O)N[C@@H](CC(C)C)C(=O)NC(C)(C)C(=O)NC(C)(C)C(=O)NCCC(=O)N[C@@H](C)CN(C)C [Compound 5769] (X4-P[Gly(octyl)]L[Aib]LL[Aib][Aib][βAla]-{NH((S)CH(Me)CH2NMe2)})",
    "UNIT_SYMBOL": "nM",
    "READOUT_NUMBER": 423
  },
  {
    "COMPOUND": "CCCCCCCC[C@H](NC(=O)[C@@H]1CCCN1C(=O)c1coc(C)n1)C(=O)N[C@@H](CC(C)C)C(=O)NC(C)(C)C(=O)N[C@@H](CC(C)C)C(=O)N[C@@H](CC(C)C)C(=O)NC(C)(C)C(=O)NC(C)(C)C(=O)NCCC(=O)NC1(CN(C)C)CCC1 [Compound 6253] ({Oxazole4CO(2-Me)}-P[Gly(octyl)]L[Aib]LL[Aib][Aib][βAla]-{NH(1-CH2NMe2-cBu)})",
    "UNIT_SYMBOL": "nM",
    "READOUT_NUMBER": 945
  },
  {
    "COMPOUND": "Cc1nc(C(=O)N2CCC[C@@H]2C(=O)N[C@H](CCC2CCCCC2)C(=O)N[C@H](CC(C)C)C(=O)NC(C)(C)C(=O)N[C@H](CC(C)C)C(=O)N[C@H](CC(C)C)C(=O)NC(C)(C)C(=O)NC(C)(C)C(=O)NCCC(=O)NC2(CN(C)C)CCC2)co1 [Compound 7050] ({Oxazole4CO(2-Me)}-[dP][d(hCha)][dL][Aib][dL][dL][Aib][Aib][βAla]-{NH(1-CH2NMe2-cBu)})",
    "UNIT_SYMBOL": "nM",
    "READOUT_NUMBER": 4970
  }
]

Query block: Given CCCCCCCC[C@H](NC(=O)[C@@H]1CCCN1C(=O)c1coc(C)n1)C(=O)N[C@@H](CC(C)C)C(=O)NC(C)(C)C(=O)N[C@@H](CC(C)C)C(=O)N[C@@H](CC(C)C)C(=O)NC(C)(C)C(=O)NC(C)(C)C(=O)NCCC(=O)NCCNC [Compound 7058] ({Oxazole4CO(2-Me)}-P[Gly(octyl)]L[Aib]LL[Aib][Aib][βAla]-NHCH2CH2NHMe) , state its recorded IC50 at 68 h.
Result block: 5040

Query block: Given the entry CCCCCCCC[C@H](NC(=O)[C@@H]1CCCN1C(=O)c1coc(C)n1)C(=O)N[C@@H](CC(C)C)C(=O)NC(C)(C)C(=O)N[C@@H](CC(C)C)C(=O)N[C@@H](CC(C)C)C(=O)NC(C)(C)C(=O)NC(C)(C)C(=O)NCCC(=O)NC1(CN(C)C)CCCC1 [Compound 6254] ({Oxazole4CO(2-Me)}-P[Gly(octyl)]L[Aib]LL[Aib][Aib][βAla]-X12) , report its measured IC50 at 68 h.
Result block: 528

Query block: Sample Cc1nc(C(=O)N2CCC[C@H]2C(=O)N[C@@H](CCC2CCCCC2)C(=O)N[C@@H](CC(C)C)C(=O)NC(C)(C)C(=O)N[C@@H](CC(C)C)C(=O)N[C@@H](CC(C)C)C(=O)NC(C)(C)C(=O)NC(C)(C)C(=O)NCCC(=O)NC2(CN3CCCCC3)CCC2)co1 [Compound 6483] ({Oxazole4CO(2-Me)}-P[hCha]L[Aib]LL[Aib][Aib][βAla]-X2) — what was its IC50 at 68 h?
Result block: 486

Query block: Request the reported IC50 at 68 h associated with CCCCCCCC[C@H](NC(=O)[C@@H]1CCCN1C(=O)c1ccc2[nH]ccc2c1)C(=O)N[C@@H](CC(C)C)C(=O)NC(C)(C)C(=O)N[C@@H](CC(C)C)C(=O)N[C@@H](CC(C)C)C(=O)NC(C)(C)C(=O)NC(C)(C)C(=O)NCCC(=O)N[C@@H](C)CN(C)C [Compound 5911] (X7-P[Gly(octyl)]L[Aib]LL[Aib][Aib][βAla]-{NH((S)CH(Me)CH2NMe2)})
Result block: 457
